# Measurement target: D3 receptor (Rattus norvegicus)
# Sequence (P19020 whole entry): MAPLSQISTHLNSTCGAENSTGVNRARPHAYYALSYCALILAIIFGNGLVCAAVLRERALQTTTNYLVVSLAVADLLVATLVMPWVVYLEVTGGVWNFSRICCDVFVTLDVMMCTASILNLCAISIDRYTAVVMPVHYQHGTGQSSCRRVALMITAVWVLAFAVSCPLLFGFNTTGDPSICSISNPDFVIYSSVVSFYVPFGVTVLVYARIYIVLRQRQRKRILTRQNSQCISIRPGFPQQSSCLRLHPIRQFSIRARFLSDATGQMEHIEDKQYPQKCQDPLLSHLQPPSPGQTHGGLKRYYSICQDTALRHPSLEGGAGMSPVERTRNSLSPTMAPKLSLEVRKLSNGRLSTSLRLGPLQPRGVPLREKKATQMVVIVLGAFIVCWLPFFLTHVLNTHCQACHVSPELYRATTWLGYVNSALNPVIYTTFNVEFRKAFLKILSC
# Cond: rat brain binding, ratio of Ki values
Attribute: Selectivity D1-like/D3

Reference set, count: 3
> print(dat)
                         structure.notation  assay.result
1  CCCN(CC[C@H]1C[C@@H](NC(=O)c2ccc3ccccc3c2)C1)[C@H]1CCc2nc(N)sc2C1         8,822
2  CCCN(CC[C@]1(O)CC[C@H](NC(=O)c2ccc3ccccc3c2)CC1)[C@H]1CCc2nc(N)sc2C1        15,115
3  CCCN(CC[C@H]1C[C@H](NC(=O)c2ccc3ccccc3c2)C1)[C@H]1CCc2nc(N)sc2C1        14,848

Field: next compound
Output measured Selectivity D1-like/D3 for this item: CCCN(CC[C@]1(O)CC[C@@H](NC(=O)c2ccc3ccccc3c2)CC1)[C@H]1CCc2nc(N)sc2C1
7,373
